Data origin, for the record: ChEMBL document CHEMBL3525979

Test: Drug excretion in feces of Sprague-Dawley rat model of streptozotocin-induced diabetes mellitus at 10 mg/kg, po by HPLC method
Assay type: ADME, organism-based
Design: dose 10 mg/kg, route oral
Conditions: faeces, read-out: Drug excretion

{"columns": ["Molecule", "Measure Unit", "dose excreted"],
 "data": [
  ["COc1ccc(Cl)cc1C(=O)NCCc1ccc(S(=O)(=O)NC(=O)NC2CCCCC2)cc1 [GLYBURIDE]", "%", 40]
]}

* * *

Experiment: Mean residence time in normal Sprague-Dawley rat at 10 mg/kg, po by HPLC method
Format: ADME, organism-based
Design: dose 10 mg/kg, route oral
Conditions: in vivo

{"columns": ["Compound", "Measure Unit", "MRT"],
 "data": [
  ["COc1ccc(Cl)cc1C(=O)NCCc1ccc(S(=O)(=O)NC(=O)NC2CCCCC2)cc1 [GLYBURIDE]", "h", 7.23]
]}

* * *

Experiment: Drug excretion in urine of Sprague-Dawley rat model of streptozotocin-induced diabetes mellitus at 10 mg/kg, po by HPLC method
Format: ADME, organism-based
Design: dose 10 mg/kg, route oral
Conditions: read-out: Drug excretion

{"columns": ["Compound", "Measure Unit", "dose excreted"],
 "data": [
  ["COc1ccc(Cl)cc1C(=O)NCCc1ccc(S(=O)(=O)NC(=O)NC2CCCCC2)cc1 [GLYBURIDE]", "%", 0.023]
]}

* * *

Assay: AUC (0 to infinity) in insulin treated Sprague-Dawley rat model of streptozotocin-induced diabetes mellitus at 10 mg/kg, po by HPLC method
Assay type: ADME, organism-based
Parameters: dose 10 mg/kg, route oral, time infinity
Details: in vivo

{"columns": ["Compound", "AUC(0-inf)"],
 "data": [
  ["COc1ccc(Cl)cc1C(=O)NCCc1ccc(S(=O)(=O)NC(=O)NC2CCCCC2)cc1 [GLYBURIDE]", "3000 ng·h/mL"]
]}

* * *

Assay: Drug excretion in urine of insulin treated Sprague-Dawley rat model of streptozotocin-induced diabetes mellitus at 10 mg/kg, po by HPLC method
Assay type: ADME, organism-based
Design: dose 10 mg/kg, route oral
Conditions: read-out: Drug excretion

{"columns": ["Compound", "Measure Unit", "dose excreted"],
 "data": [
  ["COc1ccc(Cl)cc1C(=O)NCCc1ccc(S(=O)(=O)NC(=O)NC2CCCCC2)cc1 [GLYBURIDE]", "%", 0.019]
]}

* * *

Tested on: Liver microsome
Assay: Apparent hepatic clearance in insulin treated streptozotocin-induced diabetes mellitus Sprague-Dawley rat liver microsomes assessed per mg protein at 4 uM after 60 mins
Format: ADME
Settings: 1 h

{"columns": ["Compound", "Assay Target", "CLH(app)"],
 "data": [
  ["COc1ccc(Cl)cc1C(=O)NCCc1ccc(S(=O)(=O)NC(=O)NC2CCCCC2)cc1 [GLYBURIDE]", "Liver microsome", "176 µL/min/mg"]
]}

* * *

Test: Cmax in insulin treated Sprague-Dawley rat model of streptozotocin-induced diabetes mellitus at 10 mg/kg, po by HPLC method
Type: ADME, organism-based
Set-up: dose 10 mg/kg, route oral
Conditions: in vivo
Experimental Readout: Cmax (ng/mL)

{"columns": ["Compound", "Experimental Readout", "Measure Unit", "Numeric Result"],
 "data": [
  ["COc1ccc(Cl)cc1C(=O)NCCc1ccc(S(=O)(=O)NC(=O)NC2CCCCC2)cc1 [GLYBURIDE]", "Cmax", "ng/mL", 250]
]}

* * *

Assay: Drug excretion in normal Sprague-Dawley rat urine at 10 mg/kg, po by HPLC method
Type: ADME, organism-based
Set-up: dose 10 mg/kg, route oral
Details: read-out: Drug excretion

{"columns": ["Compound", "dose excreted / %"],
 "data": [
  ["COc1ccc(Cl)cc1C(=O)NCCc1ccc(S(=O)(=O)NC(=O)NC2CCCCC2)cc1 [GLYBURIDE]", 0.0042]
]}

* * *

Experiment: Half life in normal Sprague-Dawley rat liver microsomes at 4 uM after 60 mins
Assay type: ADME
Experimental Readout: half-life at 4 µM (min)

{"columns": ["Compound", "Numeric Result"],
 "data": [
  ["COc1ccc(Cl)cc1C(=O)NCCc1ccc(S(=O)(=O)NC(=O)NC2CCCCC2)cc1 [GLYBURIDE]", 12.4]
]}

* * *

Test: Terminal elimination half life in insulin treated Sprague-Dawley rat model of streptozotocin-induced diabetes mellitus at 10 mg/kg, po by HPLC method
Type: ADME, organism-based
Parameters: dose 10 mg/kg, route oral
Details: in vivo, read-out: beta t1/2 (converted)

{"columns": ["Molecule", "half-life / h"],
 "data": [
  ["COc1ccc(Cl)cc1C(=O)NCCc1ccc(S(=O)(=O)NC(=O)NC2CCCCC2)cc1 [GLYBURIDE]", 8.18]
]}

* * *

Experiment: Drug excretion in normal Sprague-Dawley rat feces at 10 mg/kg, po by HPLC method
Assay type: ADME, organism-based
Set-up: dose 10 mg/kg, route oral
Settings: faeces, read-out: Drug excretion

{"columns": ["Compound", "dose excreted [%]"],
 "data": [
  ["COc1ccc(Cl)cc1C(=O)NCCc1ccc(S(=O)(=O)NC(=O)NC2CCCCC2)cc1 [GLYBURIDE]", 72]
]}

* * *

Assay: Apparent oral volume of distribution in Sprague-Dawley rat model of streptozotocin-induced diabetes mellitus at 10 mg/kg, po by HPLC method
Assay type: ADME, organism-based
Parameters: dose 10 mg/kg, route oral
Details: in vivo

{"columns": ["Compound", "Vd/F"],
 "data": [
  ["COc1ccc(Cl)cc1C(=O)NCCc1ccc(S(=O)(=O)NC(=O)NC2CCCCC2)cc1 [GLYBURIDE]", "6.36 L/kg"]
]}

* * *

Assay: Oral clearance in Sprague-Dawley rat model of streptozotocin-induced diabetes mellitus at 10 mg/kg, po by HPLC method
Format: ADME, organism-based
Parameters: dose 10 mg/kg, route oral
Details: in vivo

{"columns": ["Compound", "CL/F"],
 "data": [
  ["COc1ccc(Cl)cc1C(=O)NCCc1ccc(S(=O)(=O)NC(=O)NC2CCCCC2)cc1 [GLYBURIDE]", "12 mL/min/kg"]
]}

* * *

Experiment: Oral clearance in normal Sprague-Dawley rat at 10 mg/kg, po by HPLC method
Assay type: ADME, organism-based
Set-up: dose 10 mg/kg, route oral
Settings: in vivo
Experimental Readout: CL/F (mL/min/kg)

{"columns": ["Compound", "Experimental Readout", "Numeric Result"],
 "data": [
  ["COc1ccc(Cl)cc1C(=O)NCCc1ccc(S(=O)(=O)NC(=O)NC2CCCCC2)cc1 [GLYBURIDE]", "CL/F", 65.5]
]}

* * *

Experiment: Tmax in normal Sprague-Dawley rat at 10 mg/kg, po by HPLC method
Assay type: ADME, organism-based
Parameters: dose 10 mg/kg, route oral
Conditions: in vivo
Experimental Readout: Tmax (h)

{"columns": ["Compound", "Measure Unit", "Numeric Result"],
 "data": [
  ["COc1ccc(Cl)cc1C(=O)NCCc1ccc(S(=O)(=O)NC(=O)NC2CCCCC2)cc1 [GLYBURIDE]", "h", 1.5]
]}

* * *

Assay: Terminal elimination half life in Sprague-Dawley rat model of streptozotocin-induced diabetes mellitus at 10 mg/kg, po by HPLC method
Assay type: ADME, organism-based
Set-up: dose 10 mg/kg, route oral
Settings: in vivo, read-out: beta t1/2 (converted)
Experimental Readout: half-life

{"columns": ["Compound", "Result"],
 "data": [
  ["COc1ccc(Cl)cc1C(=O)NCCc1ccc(S(=O)(=O)NC(=O)NC2CCCCC2)cc1 [GLYBURIDE]", "5.11 h"]
]}

* * *

Test: Drug excretion in feces of insulin treated Sprague-Dawley rat model of streptozotocin-induced diabetes mellitus at 10 mg/kg, po by HPLC method
Assay type: ADME, organism-based
Design: dose 10 mg/kg, route oral
Conditions: faeces, read-out: Drug excretion
Experimental Readout: dose excreted (%)

{"columns": ["Compound", "Numeric Result"],
 "data": [
  ["COc1ccc(Cl)cc1C(=O)NCCc1ccc(S(=O)(=O)NC(=O)NC2CCCCC2)cc1 [GLYBURIDE]", 50]
]}

* * *

Experiment: Mean residence time in insulin treated Sprague-Dawley rat model of streptozotocin-induced diabetes mellitus at 10 mg/kg, po by HPLC method
Format: ADME, organism-based
Set-up: dose 10 mg/kg, route oral
Settings: in vivo

{"columns": ["Molecule", "MRT / h"],
 "data": [
  ["COc1ccc(Cl)cc1C(=O)NCCc1ccc(S(=O)(=O)NC(=O)NC2CCCCC2)cc1 [GLYBURIDE]", 8.15]
]}

* * *

Assay: AUC (0 to infinity) in normal Sprague-Dawley rat at 10 mg/kg, po by HPLC method
Format: ADME, organism-based
Parameters: time infinity, dose 10 mg/kg, route oral
Details: plasma

{"columns": ["Compound", "AUC(0-inf), ng·h/mL"],
 "data": [
  ["COc1ccc(Cl)cc1C(=O)NCCc1ccc(S(=O)(=O)NC(=O)NC2CCCCC2)cc1 [GLYBURIDE]", 2610]
]}
